The reported measurements were obtained from a melting point compilation (Tetko et al.).

Measured melting point by item
Reply numerically in °C, unit not repeated.

Completed entries (count: 4):
COc1ccc(N)cc1OC = 88
O=C(/C(=N/O)c1ccccc1)c1ccc2c3c(cccc13)CC2 = 204
CCC(CC)COC(=O)CCCCCCCC(=O)OCC(CC)CC = -45
N#Cc1ccc(Cl)c(Cl)c1 = 72

(Q) Return reported melting point; argument: N#CC(OC1OC(COC2OC(CO)C(O)C(O)C2O)C(O)C(O)C1O)c1ccccc1 (configuration not stated)
(A) 224

(Q) Quick check: melting point of "O=C(Cl)C(=O)Cl" ?
(A) -12

(Q) Record request: melting point value, item "CC(=O)Oc1c(-c2ccccc2)[nH]c2ccccc12"
(A) 107
